biological target: human BRD4 bromodomain II (Homo sapiens, UniProt O60885); construct: human BRD4 bromodomain II [based on Genbank NM_058243, residues 349-460]; host or cells: E. coli; experiment: Bromodomain binding assay (AlphaScreen), BRD4 BDII; settings: AlphaScreen assay, Table C2; read-out: BRD4 BDII IC50

{"columns": ["Compound", "IC50"],
 "data": [
  ["CCC1CCN(c2ccc(-c3cccc(-c4ccnc(N5CCNCC5)c4)c3O)cc2Cl)C1=O (stereo not drawn) [Example 345]", "> 100 nM"],
  ["Cc1cc(-c2cncc(N3CCN[C@H](C)C3)c2)c(O)c(-c2ccc(-n3ccn(C)c3=O)c(F)c2)c1 [Example 545]", "0.01 to 1 nM"],
  ["C[C@@H]1CN(c2cc(-c3cc(F)cc(-c4ccc(-n5ccn(C)c5=O)c(Cl)c4)c3O)ccc2F)CCN1 [Example 677]", "0.01 to 1 nM"]
]}

---

molecular target: human BRD4 bromodomain II (Homo sapiens, UniProt O60885); construct: human BRD4 bromodomain II [based on Genbank NM_058243, residues 349-460]; host or cells: E. coli; assay: Bromodomain binding assay (AlphaScreen), BRD4 BDII; details: AlphaScreen assay, Table C2; read-out: BRD4 BDII IC50
pIC50: −log10 of the molar value.

{"columns": ["Compound", "Assayed system", "pIC50"],
 "data": [
  ["CC(=O)Nc1ccc(-c2cccc(-c3ccnc(N4CC(N)C4)c3)c2O)cc1F [Example 232]", "human BRD4 bromodomain II (Homo sapiens, UniProt O60885)", "7.00 to 8.00"],
  ["Cn1cc(-c2cc(F)cc(-c3ccc(-n4ccn(C)c4=O)c(Cl)c3)c2O)cc(N2CCNCC2)c1=O [Example 437]", "human BRD4 bromodomain II (Homo sapiens, UniProt O60885)", "8.00 to 9.00"],
  ["COCc1ncc(-c2cc(F)cc(-c3ccc(N4CCN(C)C4=O)c(Cl)c3)c2O)cc1N1CCNCC1 [Example 399]", "human BRD4 bromodomain II (Homo sapiens, UniProt O60885)", "8.00 to 9.00"],
  ["CC(=O)Nc1ccc(-c2cccc(-c3cccc(N4CCC(N)C4)c3)c2O)cc1F (stereo not drawn) [Example 177]", "human BRD4 bromodomain II (Homo sapiens, UniProt O60885)", "7.00 to 8.00"],
  ["CC(C)N1CCN(c2cc(-c3cc(F)cc(-c4ccc(-n5ccn(C)c5=O)c(Cl)c4)c3O)cnc2C(F)F)CC1 [Example 831]", "human BRD4 bromodomain II (Homo sapiens, UniProt O60885)", "8.00 to 9.00"],
  ["CCNC(=O)c1cccc(-c2cccc(-c3ccc(NC(C)=O)c(F)c3)c2O)c1 [Example 93]", "human BRD4 bromodomain II (Homo sapiens, UniProt O60885)", "< 7.00"]
]}

---

test system: human SKM-1 acute myeloid leukemia cells; experiment: SKM-1 antiproliferation cell-based assay (ATPlite); settings: Homo sapiens, SKM-1, 96 h, SKM-1 antiproliferation assay, 4 days, Table C2

{"columns": ["Compound", "GI50"],
 "data": [
  ["Cn1ccn(-c2ccc(-c3cc(F)cc(-c4ccnc(N5CC[S+]([O-])CC5)c4)c3O)cc2Cl)c1=O", "30 to 300 nM"],
  ["C[C@@H]1CN(c2cc(-c3cc(F)cc(-c4ccc(N5CCN(C)C5=O)c(Cl)c4)c3O)cn(C)c2=O)CCN1", "30 to 300 nM"],
  ["Cn1ccn(-c2ccc(-c3cc(F)cc(-c4ccnc(N5CC6CNC6C5)c4)c3O)cc2Cl)c1=O (stereo not drawn)", "0.3 to 30 nM"],
  ["C[C@@H]1CN(c2cc(-c3cccc(-c4ccc(N5CCN(C)C5=O)c(Cl)c4)c3O)ccn2)CCN1", "30 to 300 nM"],
  ["Cn1ccn(-c2ccc(-c3cc(F)cc(-c4cc(N5CCN(C(C)(C)C)CC5)n(C)c(=O)c4)c3O)cc2Cl)c1=O", "0.3 to 30 nM"],
  ["CC(C)N1CCN(c2cccc(-c3cc(F)cc(-c4ccc(-n5ccn(C)c5=O)c(Cl)c4)c3O)c2)CC1", "0.3 to 30 nM"],
  ["Cn1ccn(-c2ccc(-c3cc(F)cc(-c4ccnc(N5CC[C@H](N)C5)c4)c3O)cc2Cl)c1=O", "0.3 to 30 nM"],
  ["Cn1ccn(-c2ccc(-c3cc(F)cc(-c4ccnc(N5CCNC(CCN)C5)c4)c3O)cc2Cl)c1=O (stereo not drawn)", "30 to 300 nM"],
  ["Cn1ccn(-c2ccc(-c3cc(F)cc(-c4ccnc(N5CC6(CNC6)C5)c4)c3O)cc2Cl)c1=O", "30 to 300 nM"],
  ["Cn1ccn(-c2ccc(-c3cc(F)cc(-c4ccnc(N5CCN6CCOCC6C5)c4)c3O)cc2Cl)c1=O (stereo not drawn)", "0.3 to 30 nM"],
  ["CC(=O)Nc1ccc(-c2cccc(-c3ccnc(N4CC5(CNC5)C4)c3)c2O)cc1Cl", "300 to 3000 nM"],
  ["CN1CCN(c2ccc(-c3cc(F)cc(-c4ccnc(N5CCNc6ccccc65)c4)c3O)cc2Cl)C1=O", "≥ 3000 nM"],
  ["Cn1ccn(-c2ccc(-c3cc(F)cc(-c4cc(N5CC6CCC5CN6)c5cn[nH]c5c4)c3O)cc2Cl)c1=O (stereo not drawn)", "0.3 to 30 nM"],
  ["CC1CN(c2cc(-c3cccc(-c4ccc(N5CCCC5=O)c(F)c4)c3O)ccn2)CC(C)N1 (stereo not drawn)", "300 to 3000 nM"],
  ["Cn1ccn(-c2ccc(-c3cc(F)cc(-c4cc(NS(C)(=O)=O)nc(N5CCNCC5)c4)c3O)cc2Cl)c1=O", "30 to 300 nM"],
  ["CO[C@H]1COC(=O)N1c1ccc(-c2cc(F)cc(-c3ccnc(N4CCNCC4)c3)c2O)cc1Cl", "300 to 3000 nM"],
  ["CN1CCN(c2ccc(-c3cccc(-c4cnnc(N5CCNCC5)c4)c3O)cc2Cl)C1=O", "30 to 300 nM"],
  ["CC(=O)Nc1ccc(-c2cc(F)cc(-c3ccc(C#N)c(N4CCNCC4)c3)c2O)cc1F", "30 to 300 nM"],
  ["CN1CCN(c2ccc(-c3cc(F)cc(-c4ccnc(N5CCNC5=O)c4)c3O)cc2Cl)C1=O", "≥ 3000 nM"],
  ["O=C1CCCN1c1ccc(-c2cc(F)cc(-c3ccnc(N4CCNCC4)c3)c2O)cc1Cl", "300 to 3000 nM"],
  ["CCC1CCN(c2ccc(-c3cccc(-c4ccnc(N5CCNCC5)c4)c3O)cc2Cl)C1=O (stereo not drawn)", "300 to 3000 nM"],
  ["COc1ncc(-c2cc(F)cc(-c3ccc(-n4ccn(C)c4=O)c(Cl)c3)c2O)cc1N1CC(C)(O)C2(CC2)C1 (stereo not drawn)", "30 to 300 nM"],
  ["CC(=O)NC1(C)C2CCC1CN(c1cc(-c3cc(F)cc(-c4ccc(-n5ccn(C)c5=O)c(Cl)c4)c3O)ccn1)C2 (stereo not drawn)", "30 to 300 nM"],
  ["C[C@@H]1CN(c2cc(-c3cc(F)cc(-c4ccc(-n5ccn(C)c5=O)c(Cl)c4)c3O)cc3c2ncn3C)CCN1", "0.3 to 30 nM"]
]}

---

test system: human SKM-1 acute myeloid leukemia cells; test: SKM-1 antiproliferation cell-based assay (ATPlite); settings: Homo sapiens, SKM-1, 96 h, SKM-1 antiproliferation assay, 4 days, Table C2
Outcome measure: GI50

{"columns": ["Compound", "Assayed system", "Outcome measure", "Reported result"],
 "data": [
  ["CCN1CCN(c2cc(-c3cc(F)cc(-c4ccc(-n5ccn(C)c5=O)c(Cl)c4)c3O)ccn2)CC1 [Example 469]", "human SKM-1 acute myeloid leukemia cells", "GI50", "0.0003 to 0.03 µM"],
  ["Cc1ncc(-c2cc(F)cc(-c3ccc(-n4ccn(C)c4=O)c(Cl)c3)c2O)cc1N1CC[C@@](C)(O)C1 [Example 825]", "human SKM-1 acute myeloid leukemia cells", "GI50", "0.0003 to 0.03 µM"],
  ["O=c1occn1-c1ccc(-c2cc(F)cc(-c3ccnc(N4CCNCC4)c3)c2O)cc1Cl [Example 505]", "human SKM-1 acute myeloid leukemia cells", "GI50", "0.03 to 0.3 µM"],
  ["Cn1ccn(-c2ccc(-c3cc(F)cc(-c4ccnc(N5CC6CC6(O)C5)c4)c3O)cc2Cl)c1=O (stereo not shown) [Example 770]", "human SKM-1 acute myeloid leukemia cells", "GI50", "0.03 to 0.3 µM"],
  ["CCC1(O)CCN(c2cc(-c3cc(F)cc(-c4ccc(-n5ccn(C)c5=O)c(Cl)c4)c3O)ccn2)C1 (stereo not shown) [Example 737]", "human SKM-1 acute myeloid leukemia cells", "GI50", "0.0003 to 0.03 µM"],
  ["Cc1cc(-c2ccnc(N3CC[C@H](N)C3)c2)c(O)c(-c2ccc(N3CCN(C)C3=O)c(Cl)c2)c1 [Example 362]", "human SKM-1 acute myeloid leukemia cells", "GI50", "0.03 to 0.3 µM"],
  ["Cn1ccn(-c2ccc(-c3cc(F)cc(-c4cncc(N5CC[C@@](C)(O)C5)c4)c3O)cc2Cl)c1=O [Example 728]", "human SKM-1 acute myeloid leukemia cells", "GI50", "0.0003 to 0.03 µM"]
]}
